test system: Mammalian orthoreovirus 1; assay: Antiviral activity against reovirus1 virus in Vero cells assessed as reduction of virus plaque formation after 7 days; assay type: functional, organism-based; settings: Mammalian orthoreovirus 1, Vero, 168 h
pEC50: −log10 of the molar value.
Readout name: pEC50

>>> test_result("COc1nc(OC)c(Br)c(C(Br)Br)n1")
"< 4.40"
>>> test_result("CC(=O)OC(C)(Cc1cc(O)nc(O)n1)Cc1ccccc1F (stereo unspecified)")
"< 3.91"
>>> test_result("CC(O)(CF)Cc1cc(O)nc(O)n1 (stereo unspecified)")
"< 3.71"
>>> test_result("COc1nc(CBr)c(Br)c(OC)n1")
"< 5.10"
>>> test_result("O=c1[nH]c(=O)n([C@H]2C[C@H](O)[C@@H](CO)O2)cc1/C=C/Br [BRIVUDINE]")
"< 3.60"

Next compound, pEC50 to be filled in.
Ask: Returns the measured pEC50 for the input compound. Input: COc1cc(CC(O)(c2ccc(F)cc2)c2ccc(F)cc2)nc(OC)n1
Reply: < 4.40

Data origin, for the record: ChEMBL document CHEMBL1145384
